Let's go through some IC50 measurements on Proteinase-activated receptor 1 (Homo sapiens) together.

Molecule	IC50
C[C@H]1OC(=O)[C@@H]2C[C@@H]3CCCC[C@H]3[C@H](/C=C/c3ccc(-c4ccccc4Cl)cn3)[C@H]12	26 nM
C[C@H]1OC(=O)[C@@H]2C[C@@H]3CCCC[C@H]3[C@H](/C=C/c3ccc(-c4cccc(S(N)(=O)=O)c4)cn3)[C@H]12	100 nM
CNc1cccc(/C=C/[C@H]2[C@@H]3CCCC[C@H]3C[C@H]3C(=O)O[C@H](C)[C@@H]23)n1 (racemic)	1250 nM
CCOC(=O)c1ccccc1-c1ccc(/C=C/[C@H]2[C@@H]3CCCC[C@H]3C[C@H]3C(=O)O[C@H](C)[C@@H]23)nc1	44 nM
C[C@H]1OC(=O)[C@@H]2C[C@@H]3CCCC[C@H]3[C@H](/C=C/c3ccc(OCc4ccccc4)cn3)[C@H]12 (racemic)	19 nM
Cc1cccc(-c2ccc(/C=C/[C@H]3[C@@H]4CCCC[C@H]4C[C@H]4C(=O)O[C@H](C)[C@@H]34)nc2)c1	13 nM
C[C@H]1OC(=O)[C@@H]2C[C@@H]3CCCC[C@H]3[C@H](/C=C/c3ccc(-c4ccc(F)cc4)cn3)[C@H]12 (racemic)	467 nM
C[C@H]1OC(=O)[C@@H]2C[C@@H]3CCCC[C@H]3[C@H](/C=C/c3ccc(-c4ccccc4C(F)(F)F)cn3)[C@H]12	46 nM
C[C@H]1OC(=O)[C@@H]2C[C@@H]3CCCC[C@H]3[C@H](/C=C/c3ccc(-c4ccccc4F)cn3)[C@H]12	22 nM
C[C@H]1OC(=O)[C@@H]2C[C@@H]3CCCC[C@H]3[C@H](/C=C/c3cccc(CO)n3)[C@H]12 (racemic)	1500 nM
Cc1ccnc(/C=C/[C@H]2[C@@H]3CCCC[C@H]3C[C@H]3C(=O)O[C@H](C)[C@@H]23)c1 (racemic)	2100 nM

====

AUC at 4 h values by entry
Experiment: Area under curve after oral administration to rats in 20% hydroxypropyl-beta-cyclodextrin after 4 hours
Conditions: rat, in vivo

Structure	AUC at 4 h / µM·h
C[C@H]1OC(=O)[C@@H]2C[C@@H]3CCCC[C@H]3[C@H](/C=C/c3ccc(-c4ccccc4Cl)cn3)[C@H]12	4.29
Cc1ccccc1-c1ccc(/C=C/[C@H]2[C@@H]3CCCC[C@H]3C[C@H]3C(=O)O[C@H](C)[C@@H]23)nc1	2.81
C[C@H]1OC(=O)[C@@H]2C[C@@H]3CCCC[C@H]3[C@H](/C=C/c3ccc(-c4ccccc4)cn3)[C@H]12	0.917
COc1cccc(-c2ccc(/C=C/[C@H]3[C@@H]4CCCC[C@H]4C[C@H]4C(=O)O[C@H](C)[C@@H]34)nc2)c1	0.012
C[C@H]1OC(=O)[C@@H]2C[C@@H]3CCCC[C@H]3[C@H](/C=C/c3ccc(-c4ccccc4F)cn3)[C@H]12	2.47

====

Target: Proteinase-activated receptor 1 (Homo sapiens, UniProt P25116)
Sequence (P25116 whole entry): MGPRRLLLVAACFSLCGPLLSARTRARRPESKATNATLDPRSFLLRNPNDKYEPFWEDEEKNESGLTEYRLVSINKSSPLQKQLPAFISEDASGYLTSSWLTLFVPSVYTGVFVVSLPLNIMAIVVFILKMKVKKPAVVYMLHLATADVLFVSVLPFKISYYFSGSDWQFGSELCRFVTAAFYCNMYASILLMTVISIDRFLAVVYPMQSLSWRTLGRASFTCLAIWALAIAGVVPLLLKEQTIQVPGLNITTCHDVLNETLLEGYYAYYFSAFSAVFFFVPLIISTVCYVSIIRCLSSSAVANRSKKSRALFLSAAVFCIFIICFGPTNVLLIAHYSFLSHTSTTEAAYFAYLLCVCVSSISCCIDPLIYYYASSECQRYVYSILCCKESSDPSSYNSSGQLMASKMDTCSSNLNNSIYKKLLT
pIC50: −log10 of the molar value.
Assay Endpoint: pIC50

Compound	Reading
COc1ccc(/C=C/[C@H]2[C@@H]3CCCC[C@H]3C[C@H]3C(=O)O[C@H](C)[C@@H]23)nc1 (racemic)	6.49
C[C@H]1OC(=O)[C@@H]2C[C@@H]3CCCC[C@H]3[C@H](/C=C/c3ccc(-c4cccc(Br)c4)cn3)[C@H]12	7.60
CCCCc1cccc(/C=C/[C@H]2[C@@H]3CCCC[C@H]3C[C@H]3C(=O)O[C@H](C)[C@@H]23)n1 (racemic)	6.84
COc1ccccc1-c1ccc(/C=C/[C@H]2[C@@H]3CCCC[C@H]3C[C@H]3C(=O)O[C@H](C)[C@@H]23)nc1	7.96
C[C@H]1OC(=O)[C@@H]2C[C@@H]3CCCC[C@H]3[C@H](/C=C/c3ccc(-c4cccc(F)c4)cn3)[C@H]12	7.46
C[C@H]1OC(=O)[C@@H]2C[C@@H]3CCCC[C@H]3[C@H](/C=C/c3ccc(-c4ccccc4)cn3)[C@H]12	7.57
C[C@H]1OC(=O)[C@@H]2C[C@@H]3CCCC[C@H]3[C@H](/C=C/c3ccc(Cc4ccccc4)cn3)[C@H]12 (racemic)	5.43

====

Test: Maximum plasma concentration after oral administration to rats in 20% hydroxypropyl-beta-cyclodextrin after 4 hours
Details: rat

Structure	Units Symbol	Cmax
C[C@H]1OC(=O)[C@@H]2C[C@@H]3CCCC[C@H]3[C@H](/C=C/c3ccc(-c4ccccc4)cn3)[C@H]12	nM	453
Cc1cccc(-c2ccc(/C=C/[C@H]3[C@@H]4CCCC[C@H]4C[C@H]4C(=O)O[C@H](C)[C@@H]34)nc2)c1	nM	380
C[C@H]1OC(=O)[C@@H]2C[C@@H]3CCCC[C@H]3[C@H](/C=C/c3ccc(-c4cccc(F)c4)cn3)[C@H]12	nM	1520

====

AUC at 4 h values by entry
Test: Area under curve after oral administration to rats in 20% hydroxypropyl-beta-cyclodextrin after 4 hours
Details: rat, in vivo

Structure	AUC at 4 h (µM·h)
CC(C)c1cccc(-c2ccc(/C=C/[C@H]3[C@@H]4CCCC[C@H]4C[C@H]4C(=O)O[C@H](C)[C@@H]34)nc2)c1	0.258
COc1ccccc1-c1ccc(/C=C/[C@H]2[C@@H]3CCCC[C@H]3C[C@H]3C(=O)O[C@H](C)[C@@H]23)nc1	0.413
C[C@H]1OC(=O)[C@@H]2C[C@@H]3CCCC[C@H]3[C@H](/C=C/c3ccc(-c4cccc(F)c4)cn3)[C@H]12	3.55
Cc1cccc(-c2ccc(/C=C/[C@H]3[C@@H]4CCCC[C@H]4C[C@H]4C(=O)O[C@H](C)[C@@H]34)nc2)c1	0.331
